measurement.label: Ki

Lookup: # assay system BRM protein (Homo sapiens, UniProt P51531): give Ki of CN1CCN(c2cccc(-c3cc(-c4cc(F)ccc4O)n[nH]3)c2)CC1
Found: 1800 nM

Lookup: For BRM protein (Homo sapiens, UniProt P51531), give the measured Ki of the entry Oc1ccc(F)cc1-c1cc(N2CC3CC2CN3c2ccccn2)[nH]n1 (centres unmarked)
Found: 2700 nM

Lookup: Enter measured Ki, system BRM protein (Homo sapiens, UniProt P51531), for the molecule shown: CC(C)N(Cc1ccccc1)C(=O)c1cc(-c2cc(F)ccc2O)n[nH]1
Found: 5300 nM

Lookup: Please report the measured Ki for Oc1ccc(F)cc1-c1cc(-c2ccc(N3CCCCC3)cc2)[nH]n1 tested on BRM protein (Homo sapiens, UniProt P51531).
Sequence (P51531 whole entry): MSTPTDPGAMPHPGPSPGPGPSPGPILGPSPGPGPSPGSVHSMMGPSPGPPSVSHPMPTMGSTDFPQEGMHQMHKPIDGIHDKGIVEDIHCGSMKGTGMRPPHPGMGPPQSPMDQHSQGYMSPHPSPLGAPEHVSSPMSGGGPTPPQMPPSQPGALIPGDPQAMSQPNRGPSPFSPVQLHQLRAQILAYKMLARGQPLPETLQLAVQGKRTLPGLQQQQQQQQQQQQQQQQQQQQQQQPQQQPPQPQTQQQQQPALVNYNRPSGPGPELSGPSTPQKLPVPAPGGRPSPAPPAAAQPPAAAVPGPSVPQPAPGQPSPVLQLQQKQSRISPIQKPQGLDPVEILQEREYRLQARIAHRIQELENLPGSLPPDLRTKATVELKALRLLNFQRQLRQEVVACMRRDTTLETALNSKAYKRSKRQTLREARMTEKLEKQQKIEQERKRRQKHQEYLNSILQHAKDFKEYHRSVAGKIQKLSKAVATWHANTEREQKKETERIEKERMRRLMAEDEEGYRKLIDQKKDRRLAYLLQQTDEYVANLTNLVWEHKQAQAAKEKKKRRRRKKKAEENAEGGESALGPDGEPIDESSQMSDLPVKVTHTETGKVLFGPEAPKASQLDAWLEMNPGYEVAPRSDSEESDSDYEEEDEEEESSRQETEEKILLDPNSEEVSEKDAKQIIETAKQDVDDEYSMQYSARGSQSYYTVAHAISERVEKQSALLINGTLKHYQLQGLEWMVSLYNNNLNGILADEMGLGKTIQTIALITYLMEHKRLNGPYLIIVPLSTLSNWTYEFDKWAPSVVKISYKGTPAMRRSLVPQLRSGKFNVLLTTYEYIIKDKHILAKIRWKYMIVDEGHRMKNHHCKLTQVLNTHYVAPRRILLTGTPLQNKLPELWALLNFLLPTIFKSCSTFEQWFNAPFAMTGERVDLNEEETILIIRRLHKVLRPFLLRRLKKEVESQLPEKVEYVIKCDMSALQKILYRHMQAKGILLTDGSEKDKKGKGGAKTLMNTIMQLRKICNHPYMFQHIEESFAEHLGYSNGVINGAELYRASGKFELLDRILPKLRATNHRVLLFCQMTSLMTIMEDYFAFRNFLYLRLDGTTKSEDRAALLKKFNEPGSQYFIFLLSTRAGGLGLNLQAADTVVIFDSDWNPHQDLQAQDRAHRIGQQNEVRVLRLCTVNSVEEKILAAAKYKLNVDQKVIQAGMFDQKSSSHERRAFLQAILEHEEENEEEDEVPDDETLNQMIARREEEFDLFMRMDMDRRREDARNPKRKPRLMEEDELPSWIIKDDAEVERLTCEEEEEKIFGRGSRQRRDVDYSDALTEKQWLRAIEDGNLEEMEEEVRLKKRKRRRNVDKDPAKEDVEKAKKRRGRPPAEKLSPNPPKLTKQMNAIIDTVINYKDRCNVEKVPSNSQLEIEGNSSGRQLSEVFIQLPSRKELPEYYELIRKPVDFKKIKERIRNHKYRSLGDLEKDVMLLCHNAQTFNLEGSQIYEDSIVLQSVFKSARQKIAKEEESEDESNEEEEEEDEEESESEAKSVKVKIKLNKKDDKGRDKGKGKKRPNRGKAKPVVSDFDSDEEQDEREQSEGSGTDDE
Found: 2700 nM

Lookup: Determine reported Ki for O=C(NCCc1ccc(F)cc1)c1cc(-c2cc(F)ccc2O)n[nH]1 ; test system: BRM protein (Homo sapiens, UniProt P51531).
Found: 800 nM

Lookup: Give Ki; test system BRM protein (Homo sapiens, UniProt P51531); molecule COc1cccc(C(=O)Nc2ccc(-c3cc(-c4cc(F)ccc4O)n[nH]3)cc2)c1OC
Found: 2000 nM

Lookup: Provide Ki, tested on BRM protein (Homo sapiens, UniProt P51531), for O=C(Nc1ccc(-c2cc(-c3cc(F)ccc3O)n[nH]2)cc1)c1ccccn1 .
Found: 900 nM

Lookup: Provide the reported Ki (system: BRM protein (Homo sapiens, UniProt P51531)) for Nc1c(F)ccc(O)c1-c1cc(-c2ccc(-c3ccc(F)cc3)cc2)[nH]n1
Found: 1500 nM

Lookup: GET Ki | system: BRM protein (Homo sapiens, UniProt P51531) | item: CN1CCN(c2ccc(-c3cc(-c4cc(F)ccc4O)n[nH]3)cc2)CC1
Found: 3700 nM

Lookup: Print BRM protein (Homo sapiens, UniProt P51531) Ki for O=C(NCCc1ccc(Cl)cc1)c1cc(-c2cc(F)ccc2O)n[nH]1 .
Found: 2000 nM

Lookup: Send back BRM protein (Homo sapiens, UniProt P51531) Ki of O=C(Nc1ccc(-c2cc(-c3cc(F)ccc3O)n[nH]2)cc1)c1cccc(F)c1F only.
Found: 3000 nM

Lookup: Look up and report Ki, with BRM protein (Homo sapiens, UniProt P51531) as system, for CN(Cc1ccccc1)C(=O)c1cc(-c2cc(F)ccc2O)n[nH]1
Found: 2800 nM

Lookup: Please tell me the measured Ki for O=C(Nc1ccc(-c2cc(-c3cc(F)ccc3O)n[nH]2)cc1)C12CC3CC(CC(C3)C1)C2 ; system: BRM protein (Homo sapiens, UniProt P51531).
Found: 200 nM

Lookup: Recall the reported Ki of O=C(Nc1cc(-c2cc(F)ccc2O)n[nH]1)c1ccc(O)cc1 on BRM protein (Homo sapiens, UniProt P51531) and write it down.
Found: 4400 nM

Lookup: // fetch Ki; item: CCc1ccc(-c2cc(-c3cc(F)ccc3O)n[nH]2)cc1 ; system: BRM protein (Homo sapiens, UniProt P51531)
Found: 4600 nM

Lookup: State Ki on BRM protein (Homo sapiens, UniProt P51531). Entry: Nc1cc(-c2cc(F)ccc2O)n[nH]1
Found: 3200 nM

Lookup: Provide Ki, system BRM protein (Homo sapiens, UniProt P51531), entry O=C(Nc1cc(-c2cc(F)ccc2O)n[nH]1)c1cnccn1
Found: 1700 nM

Lookup: Recall the reported Ki of O=C(Nc1ccc(-c2cc(-c3cc(F)ccc3O)n[nH]2)cc1)c1cnccn1 when tested on BRM protein (Homo sapiens, UniProt P51531).
Found: 600 nM

Lookup: Name the value of Ki reported for CN1CCCN(c2ccc(-c3cc(-c4cc(F)ccc4O)n[nH]3)cc2)CC1 when tested on BRM protein (Homo sapiens, UniProt P51531).
Found: 900 nM

Lookup: For BRM protein (Homo sapiens, UniProt P51531), give Ki of the listed molecule: Nc1cccc(O)c1-c1cc(-c2ccc(Br)cc2)[nH]n1
Found: 2300 nM
